Biological target: endogenous cellular BACE2 in the Ins1e rat cell line (Rattus norvegicus (Rat))
Experiment: Assay for BACE inhibition by measuring cellular TMEM27 cleavage (ELISA of shed hTMEM27 from INS-TMEM27 cells)
Conditions: assay a): cellular TMEM27 cleavage, INS-TMEM27 cells (superscript a)
outcome measure: IC50 (µM)

CN1C(=O)C(C)(C)[C@@](C)(c2cc(NC3COC3)ccc2F)N=C1N [Example 132]: 0.054
CN1C(=O)C(C)(C)[C@@](C)(c2cc(NC(=O)C3(C)COC3)ccc2F)N=C1N [Example 131]: 0.256
CN1C(=O)C(C)(C)[C@@](C)(c2cc(NC3CCN(c4ccc(F)cc4)C3)ccc2F)N=C1N (stereo partly shown) [Example 31]: 0.037
CN1C(=O)C[C@@](C)(c2cccc(NC(=O)C3(C(F)(F)F)CC3)c2)N=C1N [Example 12]: 0.023

1: CN1C(=O)C(C)(C)[C@@](C)(c2cc(Nc3ccnn3C)ccc2F)N=C1N [Example 36]
2: CC(=O)N1CC(Nc2ccc(F)c([C@@]3(C)N=C(N)N(C)C(=O)C3(C)C)c2)c2ccc(F)cc21 (stereo partly shown) [Example 137]
Req: Given the listed records, identify the one among 1 and 2 with higher IC50. // return label of chosen record
Resp: 1

* * *

Target: endogenous cellular BACE2 in the Ins1e rat cell line (Rattus norvegicus (Rat))
Assay: Assay for BACE inhibition by measuring cellular TMEM27 cleavage (ELISA of shed hTMEM27 from INS-TMEM27 cells)
Details: assay a): cellular TMEM27 cleavage, INS-TMEM27 cells (superscript a)
Procedure: a) Assay for BACE Inhibition by Measuring Cellular TMEM27 Cleavage: […] An ELISA assay (using a pair of mouse anti-human-TMEM27 antibodies, raised against the extracellular domain of TMEM27) is used for detection of TMEM27 in the culture medium. An EC50 for BACE2 inhibition is calculated using the ELISA readout for each inhibitor concentration with standard curve-fitting software such as XLFit for the Excel spreadsheet program.
pIC50: −log10 of the molar value.
outcome measure: pIC50

CN1C(=O)C(C)(C)[C@@](C)(c2cc(NCC3CCOC3)ccc2F)N=C1N (some centres unmarked): 7.82

P: CN1C(=O)C(C)(C)[C@@](C)(c2cc(Nc3ccc(F)cc3)ccc2F)N=C1N
Q: CC1CCCC1Nc1ccc(F)c([C@@]2(C)N=C(N)N(C)C(=O)C2(C)C)c1 (some centres unmarked)
Req: Between P and Q , which one has the lower reported pIC50 value? // return label of chosen record
Resp: P
(P: 5.94, Q: 8.40)

* * *

Biological target: endogenous cellular BACE2 in the Ins1e rat cell line (Rattus norvegicus (Rat), UniProt Q6IE75)
Sequence (Q6IE75 63-514): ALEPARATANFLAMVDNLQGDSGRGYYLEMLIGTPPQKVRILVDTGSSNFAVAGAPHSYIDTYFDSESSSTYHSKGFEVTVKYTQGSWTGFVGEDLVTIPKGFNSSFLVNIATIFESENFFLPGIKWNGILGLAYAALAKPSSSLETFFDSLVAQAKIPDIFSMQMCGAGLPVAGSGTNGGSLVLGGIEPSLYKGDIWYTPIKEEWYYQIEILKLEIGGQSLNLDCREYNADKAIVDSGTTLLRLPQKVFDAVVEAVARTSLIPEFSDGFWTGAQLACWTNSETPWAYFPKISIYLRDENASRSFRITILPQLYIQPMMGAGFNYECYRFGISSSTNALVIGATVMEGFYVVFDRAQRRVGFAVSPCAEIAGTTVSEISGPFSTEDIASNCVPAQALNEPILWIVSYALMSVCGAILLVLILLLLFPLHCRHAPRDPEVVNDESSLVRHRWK
Experiment: Assay for BACE inhibition by measuring cellular TMEM27 cleavage (ELISA of shed hTMEM27 from INS-TMEM27 cells)
Settings: assay a): cellular TMEM27 cleavage, INS-TMEM27 cells (superscript a)
pIC50: −log10 of the molar value.
outcome measure: pIC50

Please review the following examples before continuing.
CN1C(=O)C(C)(C)[C@@](C)(c2cc(NCC3(C)CC3(F)F)ccc2F)N=C1N (stereo partly shown) [Example 68]: 8.52
CC(Nc1ccc(F)c([C@@]2(C)N=C(N)N(C)C(=O)C2(C)C)c1)C1CC1 (stereo partly shown) [Example 37]: 7.41
CN1C(=O)C(C)(C)[C@@](C)(c2cc(NCC3CCCOC3)ccc2F)N=C1N (stereo partly shown) [Example 90]: 6.33

a: CN1C(=O)C(C)(C)[C@@](C)(c2cc(NC3CCCN(Cc4ccccc4)C3)ccc2F)N=C1N (stereo partly shown) [Example 44]
b: CN1C(=O)C(C)(C)[C@@](C)(c2cc(Nc3ccccc3Cl)ccc2F)N=C1N [Example 119]
Req: Given the listed records, identify the one among a and b with higher pIC50. // return label of chosen record
Resp: b
(b: 7.80, a: 7.35)

a: COc1ccc(F)cc1Nc1ccc(F)c([C@@]2(C)N=C(N)N(C)C(=O)C2(C)C)c1 [Example 84]
b: CN1C(=O)C(C)(C)[C@@](C)(c2cc(NC3CC4CC3CC4O)ccc2F)N=C1N (stereo partly shown) [Example 101]
Req: Given the listed records, identify the one among a and b with higher pIC50. // return label of chosen record
Resp: b
(b: 9.00, a: 7.16)

1: CN1C(=O)C(C)(C)[C@@](C)(c2cc(NC(=O)C3CC3(C)C)ccc2F)N=C1N (stereo partly shown) [Example 19]
2: CN1C(=O)C(C)(C)[C@@](C)(c2cc(NC(=O)C3(O)CC3)ccc2F)N=C1N [Example 134]
Req: Given the listed records, identify the one among 1 and 2 with higher pIC50. // return label of chosen record
Resp: 1

* * *

Molecular target: BACE2 enzyme ectodomain (Homo sapiens (Human))
Sequence (Q9Y5Z0 63-473): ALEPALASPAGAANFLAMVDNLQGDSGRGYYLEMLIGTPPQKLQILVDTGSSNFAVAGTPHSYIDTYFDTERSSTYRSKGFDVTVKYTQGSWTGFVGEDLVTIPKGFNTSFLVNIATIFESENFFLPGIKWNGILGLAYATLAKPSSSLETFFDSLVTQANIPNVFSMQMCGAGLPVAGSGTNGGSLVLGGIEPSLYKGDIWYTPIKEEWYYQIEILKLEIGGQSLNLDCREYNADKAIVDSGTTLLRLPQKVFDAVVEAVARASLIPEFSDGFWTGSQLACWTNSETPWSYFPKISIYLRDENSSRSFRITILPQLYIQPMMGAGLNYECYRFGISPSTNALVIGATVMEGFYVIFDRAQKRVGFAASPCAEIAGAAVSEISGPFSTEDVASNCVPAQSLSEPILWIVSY
Assay: Fluorescent-peptide cleavage assay for BACE2 inhibition
Format: biochemical
Settings: assay b): fluorescent-peptide cleavage, pH 4.5 (superscript b)
pIC50: −log10 of the molar value.
outcome measure: pIC50

Please review the following examples before continuing.
CN1C(=O)C(C)(C)[C@@](C)(c2cc(Nc3ccc(Cl)nc3)ccc2F)N=C1N: 6.89
CN1C(=O)C(C)(C)[C@@](C)(c2cc(Nc3cc(C#N)ccc3F)ccc2F)N=C1N: 7.41

P: CN1C(=O)C(C)(C)[C@@](C)(c2cc(Nc3cncc(C(F)(F)F)c3)ccc2F)N=C1N
Q: CN1C(=O)C(C)(C)[C@@](C)(c2cc(Nc3ccc(OCC(F)(F)F)nc3)ccc2F)N=C1N
Req: Between P and Q , which one has the lower reported pIC50 value? // return label of chosen record
Resp: P
(P: 6.60, Q: 6.96)

I: CN1C(=O)C(C)(C)[C@@](C)(c2cc(Nc3ccc(C(F)(F)F)nc3)ccc2F)N=C1N
II: CN1C(=O)C(C)(C)[C@@](C)(c2cc(Nc3ccc(C#N)cc3)ccc2F)N=C1N
Req: Between I and II , which one has the lower reported pIC50 value? // return label of chosen record
Resp: I

1: Cc1ccc(Nc2ccc(F)c([C@@]3(C)N=C(N)N(C)C(=O)C3(C)C)c2)cn1
2: CN1C(=O)C(C)(C)[C@@](C)(c2cc(Nc3ccc(C#N)cc3OC(F)(F)F)ccc2F)N=C1N
Req: Between 1 and 2 , which one has the lower reported pIC50 value? // return label of chosen record
Resp: 1
(1: 5.74, 2: 7.89)

* * *

Biological target: endogenous cellular BACE2 in the Ins1e rat cell line (Rattus norvegicus (Rat), UniProt Q6IE75)
Test: Assay for BACE inhibition by measuring cellular TMEM27 cleavage (ELISA of shed hTMEM27 from INS-TMEM27 cells)
Conditions: assay a): cellular TMEM27 cleavage, INS-TMEM27 cells (superscript a)
pIC50: −log10 of the molar value. Counter-ions that a name gives are not always drawn.
outcome measure: pIC50

Please review the following examples before continuing.
CN1C(=O)C(C)(C)[C@@](C)(c2cc(NCC3(C(F)(F)F)CC3)ccc2F)N=C1N: 6.92
CN1C(=O)C(C)(C)[C@@](C)(c2cc(NC3CCC(C(F)(F)F)CC3)ccc2F)N=C1N (stereo partly shown): 6.37
CC(Nc1ccc(F)c([C@@]2(C)N=C(N)N(C)C(=O)C2(C)C)c1)c1ncccn1 (stereo partly shown): 7.36
CN1C(=O)C(C)(C)[C@@](C)(c2cc(NC(=O)C(F)(F)C(F)(F)F)ccc2F)N=C1N: 6.46
CN1C(=O)C(C)(C)[C@@](C)(c2cc(NC3CCOc4cc(F)ccc43)ccc2F)N=C1N (stereo partly shown): 7.33

I: CN1C(=O)C(C)(C)[C@@](C)(c2cc(NCc3ncccn3)ccc2F)N=C1N
II: CN1C(=O)C(C)(C)[C@@](C)(c2cc(NC3CCc4cccc(F)c43)ccc2F)N=C1N (stereo partly shown)
Req: Given the listed records, identify the one among I and II with higher pIC50. // return label of chosen record
Resp: II

I: CN1C(=O)C(C)(C)[C@@](C)(c2cc(NC3CCC(CC(=O)O)C3)ccc2F)N=C1N (stereo partly shown)
II: CN1C(=O)C(C)(C)[C@@](C)(c2cc(Nc3ccn[nH]3)ccc2F)N=C1N [Example 124, hydrochloride]
III: Cc1ccc(Cl)cc1Nc1ccc(F)c([C@@]2(C)N=C(N)N(C)C(=O)C2(C)C)c1
IV: CN1C(=O)C(C)(C)[C@@](C)(c2cccc(NC(=O)C3(C#N)CC3)c2)N=C1N
V: CN1C(=O)C(C)(C)[C@@](C)(c2cc(NC(=O)CC(F)(F)F)ccc2F)N=C1N
Req: Reorder the items by pIC50, least to greatest. Answer by listing the labels in the order asked for.
Resp: I, II, IV, V, III

A: CN1C(=O)C(C)(C)[C@@](C)(c2cc(NC3CC(C)(C)c4ccccc43)ccc2F)N=C1N (stereo partly shown)
B: CCC1CC(Nc2ccc(F)c([C@@]3(C)N=C(N)N(C)C(=O)C3(C)C)c2)c2ccccc21 (stereo partly shown)
Req: Between A and B , which one has the lower reported pIC50 value? // return label of chosen record
Resp: B
(B: 7.44, A: 8.70)

A: CN1C(=O)C(C)(C)[C@@](C)(c2cc(NC3CCc4c(C(=O)O)cccc43)ccc2F)N=C1N (stereo partly shown)
B: CN1C(=O)C(C)(C)[C@@](C)(c2cc(NC(=O)C3(O)CCC3)ccc2F)N=C1N
Req: Given the listed records, identify the one among A and B with higher pIC50. // return label of chosen record
Resp: B
